Biological target: T1, human LILRB1 expressed on cells (human, UniProt Q8NHL6 24-650)
T1 construct: In 293T cells it was expressed from pCMV3-LILRB1-GFP; also called CHO-LILRB1; Jurkat-LILRB1
T1 sequence (Q8NHL6 other isoform, or with tags, fused parts or gaps limits assumed): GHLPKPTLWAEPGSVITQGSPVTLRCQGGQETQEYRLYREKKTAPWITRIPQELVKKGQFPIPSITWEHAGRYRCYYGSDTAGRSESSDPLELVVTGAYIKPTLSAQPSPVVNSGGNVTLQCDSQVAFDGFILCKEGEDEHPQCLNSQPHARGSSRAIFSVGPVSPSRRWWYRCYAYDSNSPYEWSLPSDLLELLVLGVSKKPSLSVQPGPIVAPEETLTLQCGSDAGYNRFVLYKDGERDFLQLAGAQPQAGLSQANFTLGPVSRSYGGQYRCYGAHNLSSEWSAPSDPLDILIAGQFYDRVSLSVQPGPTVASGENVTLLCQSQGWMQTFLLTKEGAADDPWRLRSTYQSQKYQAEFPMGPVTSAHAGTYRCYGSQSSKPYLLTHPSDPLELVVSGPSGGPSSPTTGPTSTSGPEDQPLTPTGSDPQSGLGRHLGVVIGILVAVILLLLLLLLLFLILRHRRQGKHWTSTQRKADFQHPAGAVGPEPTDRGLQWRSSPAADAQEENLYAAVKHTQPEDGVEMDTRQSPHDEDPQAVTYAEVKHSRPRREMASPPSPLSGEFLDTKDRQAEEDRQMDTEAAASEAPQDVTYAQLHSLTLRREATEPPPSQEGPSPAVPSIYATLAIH
Assay: flow cytometry, CHO-LILRB1 cells

Binder | EC50 [µg/mL]
#28 (antibody, human IgG1, V domains shown, also called D2M002-028) VH: EVQLQQSGAELMKPGASVKISCKATGYTFSSYWIEWVKQRPGHGLEWIGEILPGSGSTNYNEKFKGKATFTADTSSNTAYMQLSSLTSEDSAVYYCARSGAGGYDSGAFAYWGQGTLVTVSS VL: DIVMTQSPASLAVSLGQRATISCRASESVDTYGNSFMHWYQQKPGQPPKLLIYRTSNLESGIPARFSGSGSRTDFTLTINPVEADDVATYYCQQSNEDPWTFGGGTKLEIK | 1.83
#11 (antibody, human IgG1, V domains shown, also called D2M002-011) VH: EVQLQQSGAELMKPGASVKISCKATGYTFSNYWIEWVKQRPGHGLEWIGEILPGSGSTDYNEKFEGKATFTADTSSNTAYMQLSSLTSEDSAVYYCARSGAGGYDSGAFAYWGQGTLVTVSA VL: DIQMTQSPASLAVSLGQRATISCRASESVDTYGNSFMHWYQQKPGQPPKLLIYRTSNLESGIPARFSGSGSRTDFTLTINPVEADDVATYYCQQSNEDPWTFGGGTKLEIK | 1.46
#3 (antibody, human IgG1, V domains shown, also called D2M002-003) VH: QIQLLQSGPELVKPGASVKMSCKASGYTFTRYVMYWVKQKPGQGLEWIGYINPDNDGTKYNEKFKGKATLTSDKSSSTAYMELSSLTSEDSAVYYCARGDLELLPYYDYVRNAMDYWGQGTSVTVSS VL: DIQMTQSPASLSASVGETVTITCRASGNIHNYLAWYQQKQGKSPQLLVYNAKTLADGVPSRFSGSGSGTQYSLKINSLQPEDFGSYYCQHFWSTPPTFGGGTKLEIK | 0.264
